system: L1210 leukemia ip in BDF1 mice, survival T/C; assay: NCI In Vivo Anticancer Drug Screen. Data for tumor model L1210 Leukemia (intraperitoneal) in B6D2F1 (BDF1) mice; settings: endpoint: mean survival time; dose: 75.0 mg/kg/injection; schedule: Q01DX001 (ip); vehicle: carboxymethylcellulose (CMC); higher = longer survival
Inconclusive results and toxic doses are left out.
test_readout: T/C

# count of solved cases: 3
C[n+]1ccc(/C=C/c2ccc(O)c3ccccc23)c2ccccc21 = 100 % of control
CC1(C)C(C(=O)O)CC1C(=O)C(=O)O (stereo unspecified) = 96 % of control
Cc1ccc(C(=O)Oc2ccc(N=C=S)cc2)cc1 = 88 % of control

Query: Given the molecule "Nc1cc2c(cc1N)-c1ccccc1/C2=N\O" , write its reported T/C.
Reply: 102 % of control

Query: For the molecule CCCCNCCCC(C(=O)O)c1ccccc1 (stereo unspecified) , give its reported T/C.
Reply: 100 % of control

Query: Specify reported T/C for the molecule shown: "CCN(CC)c1ccc(C(=O)OCCNC2CCCCC2)cc1"
Reply: 94 % of control

* * *

system: L1210 leukemia ip in BDF1 mice, survival T/C; assay: NCI In Vivo Anticancer Drug Screen. Data for tumor model L1210 Leukemia (intraperitoneal) in B6D2F1 (BDF1) mice; conditions: endpoint: mean survival time; dose: 200.0 mg/kg/injection; schedule: Q01DX001 (ip); vehicle: saline; higher = longer survival
Inconclusive results and toxic doses are left out.
Form field: T/C (one value per entry).

C/C(=C\C(C)(C)c1ccccc1)c1ccccc1 (tested in a mixture with another compound) = 113 % of control
O=C1C(=O)C(c2ccccc2)Oc2ccccc21 (stereo unspecified) = 98 % of control
NC(=O)NC1CC(c2ccccc2)C(O)(c2ccccc2)C1 (stereo unspecified) = 90 % of control
CC1CN1P(=S)(N1CC1C)N1CC1C (stereo unspecified) = 112 % of control
Cc1ccc(C2(C)CC/C(=N/N=C3/CCC(C)(c4ccc(C)c(C)c4)c4cc(C)c(C)cc43)c3cc(C)c(C)cc32)cc1C (stereo unspecified) = 101 % of control

Query: Write down T/C measured for item Cc1ccnc(NC(c2ccccc2)c2ccc3cccnc3c2O)c1 (stereo unspecified)
Reply: 95 % of control

Query: Please give the documented T/C of "Nc1c(Br)cccc1Br"
Reply: 103 % of control

Query: Give T/C for "CC(=O)c1ccc(NC(=O)c2ccc(C(=O)Nc3ccc(C(C)=O)cc3)cc2)cc1"
Reply: 96 % of control

Query: Supply measured T/C of "C/C=C/P(=O)(c1ccccc1)c1ccccc1" in your reply.
Reply: 95 % of control

Query: Item "[O-]/[N+](=C\c1cccc(Cl)c1)c1ccccc1" : provide T/C
Reply: 100 % of control

Query: Look up and report measured T/C for this entry: "COc1cc(/C=C(/NC(=O)c2ccccc2)C(=O)O)ccc1O"
Reply: 89 % of control

* * *

tested on: L1210 leukemia ip in BDF1 mice, survival T/C; experiment: NCI In Vivo Anticancer Drug Screen. Data for tumor model L1210 Leukemia (intraperitoneal) in B6D2F1 (BDF1) mice; settings: endpoint: mean survival time; dose: 50.0 mg/kg/injection; schedule: Q04DX003 (ip); vehicle: saline; higher = longer survival
Toxic doses and inconclusive results are not listed.
test_readout: T/C

CC(=O)Oc1ccc2ccccc2c1/C=C/c1ccncc1 = 93 % of control
NS(=O)(=O)c1ccc(Br)cc1 = 97 % of control
CCCCn1cnc(=O)c2[nH]cnc21 = 105 % of control
C[N+](C)(C)C1CS(=O)C1 (configuration not stated) = 87 % of control
[NH-]C(Cc1ccccc1)C(=O)O.[NH-]C(Cc1ccccc1)C(=O)O.[Ni+2] (configuration not stated) = 98 % of control

Query: Return T/C for the following compound: "c1ccc2c(c1)CCN(CCCCN1CCc3ccccc3C1)C2"
Reply: 102 % of control

Query: Consider the compound "C[C@@H](CN1CC(=O)NC(=O)C1)N1CC(=O)NC(=O)C1" . State its measured T/C.
Reply: 116 % of control

* * *

Listed compounds paired with reported T/C
tested on: L1210 leukemia ip in BDF1 mice, survival T/C; assay: NCI In Vivo Anticancer Drug Screen. Data for tumor model L1210 Leukemia (intraperitoneal) in B6D2F1 (BDF1) mice; settings: endpoint: mean survival time; dose: 100.0 mg/kg/injection; schedule: Q01DX009 (ip); vehicle: other; higher = longer survival
Inconclusive results and toxic doses are left out.

Cc1[nH]c2ccccc2c1C1Cc2ccccc2N1 (stereo not given) = 101 % of control
N#CCCSP(=S)(Oc1ccccc1)Oc1ccccc1 = 100 % of control
C=CCCCCCCCCC(=O)O = 104 % of control
O=[N+]([O-])c1ccc(S(=O)(=O)Nc2ccc(-c3ccccc3)cc2)cc1 = 110 % of control

Turning now to a further compound:
Query: Give T/C for the following compound: "CC(C)(O)CC(O)(C(F)(F)F)C(F)(F)F"
Reply: 98 % of control

* * *

Recorded T/C values for a group of compounds are listed next.
system: L1210 leukemia ip in BDF1 mice, survival T/C; assay: NCI In Vivo Anticancer Drug Screen. Data for tumor model L1210 Leukemia (intraperitoneal) in B6D2F1 (BDF1) mice; conditions: endpoint: mean survival time; dose: 100.0 mg/kg/injection; schedule: Q04DX003 (ip); vehicle: water; higher = longer survival
Inconclusive results and toxic doses are left out.

Example compounds with recorded T/C:
SC1CC[N-]CC1.SC1CC[N-]CC1.[Cl][Pt+2][Cl] = 101 % of control
CC(C)(N)CCC(C)(C)NCCCN = 100 % of control

Query: Give me measured T/C, please, for this compound: "O=C(Nc1ccccc1-c1ccc([N+](=O)[O-])cc1)c1ccc(Cl)c(Cl)c1"
Reply: 93 % of control

Query: Given the compound "CC(C)=CCC/C(C)=C/CN1C(=O)C=CC1=O" , write its reported T/C.
Reply: 104 % of control

Query: Specify measured T/C for CC1CN(Cc2ccccc2)CC(C)N1 (stereo unspecified) .
Reply: 110 % of control

Query: State, in one line, measured T/C of "O=c1cc(N=Nc2ccc(O)cc2)[nH]c(=O)[nH]1"
Reply: 103 % of control

* * *

test system: L1210 leukemia ip in BDF1 mice, survival T/C; assay: NCI In Vivo Anticancer Drug Screen. Data for tumor model L1210 Leukemia (intraperitoneal) in B6D2F1 (BDF1) mice; conditions: endpoint: mean survival time; dose: 400.0 mg/kg/injection; schedule: Q04DX003 (ip); vehicle: Klucel (hydroxypropylcellulose) (HPC); higher = longer survival
Toxic doses and inconclusive results are not listed.
test_readout: T/C

Check out these entries, answers already filled in.
CN(C)c1ccc(C(=O)Oc2ccc([N+](=O)[O-])cc2)cc1 = 96 % of control
Cc1ccc(Cl)cc1N1C(=O)CC(Sc2ccccc2N)C1=O (stereo unspecified) = 90 % of control
c1ccc2[nH]c(/N=N/c3nc4ccccc4[nH]3)nc2c1 = 98 % of control
O=[N+]([O-])c1cccc(C=Nc2ccccc2)c1 = 96 % of control

Query: Supply T/C value. Item: "O=C(NC(=O)C(Cl)Cl)Nc1ccc2c(c1)-c1ccccc1C2"
Reply: 88 % of control

Query: Give recorded T/C. "O=C(NC(=S)Nc1ccccc1C(F)(F)F)c1ccccc1F"
Reply: 91 % of control

Query: Tell me T/C reported for "O=C1c2ccccc2C(=O)c2cc3cc(Cl)ccc3cc21"
Reply: 95 % of control

Query: Provide T/C value for the following compound: O=S(=O)(C1CC1c1ccccc1)N(c1ccccc1)c1ccccc1 (stereo unspecified)
Reply: 93 % of control

Query: Report measured T/C; entry is CC(O)(C(=O)c1ccccc1)c1ccc(Cl)cc1 (stereo unspecified)
Reply: 101 % of control

Query: Report T/C, nothing else, for this compound: C/C=C1\CCC2C(=C1C)CC1C2CC=C2CC(OC(C)=O)CCC21C (stereo unspecified)
Reply: 93 % of control

* * *

tested on: L1210 leukemia ip in BDF1 mice, survival T/C; assay: NCI In Vivo Anticancer Drug Screen. Data for tumor model L1210 Leukemia (intraperitoneal) in B6D2F1 (BDF1) mice; details: endpoint: mean survival time; dose: 6.25 mg/kg/injection; schedule: Q01DX009 (ip); vehicle: Klucel (hydroxypropylcellulose) (HPC); higher = longer survival
Toxic doses and inconclusive results are not listed.
test_readout: T/C

CC1CN1C1=C(Br)C(=O)C(N2CC2C)=C(Br)C1=O (centres undefined) = 95 % of control
CC(=O)C1=CC(=O)NC(=O)C1C(=O)CC(C)C (centres undefined) = 98 % of control
CCN1CC1 = 98 % of control

Query: Report value: T/C, system: L1210 leukemia ip in BDF1 mice, survival T/C, compound: CN1CCC(=C2c3ccccc3C(O)c3ccccc32)CC1 (centres undefined)
Reply: 96 % of control
